Catalogue of compounds with associated hERG current change (%, negative = inhibition) at 10uM
- Target Desc: human ether-à-go-go-related gene (hERG) potassium channel (human, UniProt Q12809);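 also: peak tail current of the secondary pulse compared with the same well before compound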
- Sequence (Q12809 whole entry, looked up): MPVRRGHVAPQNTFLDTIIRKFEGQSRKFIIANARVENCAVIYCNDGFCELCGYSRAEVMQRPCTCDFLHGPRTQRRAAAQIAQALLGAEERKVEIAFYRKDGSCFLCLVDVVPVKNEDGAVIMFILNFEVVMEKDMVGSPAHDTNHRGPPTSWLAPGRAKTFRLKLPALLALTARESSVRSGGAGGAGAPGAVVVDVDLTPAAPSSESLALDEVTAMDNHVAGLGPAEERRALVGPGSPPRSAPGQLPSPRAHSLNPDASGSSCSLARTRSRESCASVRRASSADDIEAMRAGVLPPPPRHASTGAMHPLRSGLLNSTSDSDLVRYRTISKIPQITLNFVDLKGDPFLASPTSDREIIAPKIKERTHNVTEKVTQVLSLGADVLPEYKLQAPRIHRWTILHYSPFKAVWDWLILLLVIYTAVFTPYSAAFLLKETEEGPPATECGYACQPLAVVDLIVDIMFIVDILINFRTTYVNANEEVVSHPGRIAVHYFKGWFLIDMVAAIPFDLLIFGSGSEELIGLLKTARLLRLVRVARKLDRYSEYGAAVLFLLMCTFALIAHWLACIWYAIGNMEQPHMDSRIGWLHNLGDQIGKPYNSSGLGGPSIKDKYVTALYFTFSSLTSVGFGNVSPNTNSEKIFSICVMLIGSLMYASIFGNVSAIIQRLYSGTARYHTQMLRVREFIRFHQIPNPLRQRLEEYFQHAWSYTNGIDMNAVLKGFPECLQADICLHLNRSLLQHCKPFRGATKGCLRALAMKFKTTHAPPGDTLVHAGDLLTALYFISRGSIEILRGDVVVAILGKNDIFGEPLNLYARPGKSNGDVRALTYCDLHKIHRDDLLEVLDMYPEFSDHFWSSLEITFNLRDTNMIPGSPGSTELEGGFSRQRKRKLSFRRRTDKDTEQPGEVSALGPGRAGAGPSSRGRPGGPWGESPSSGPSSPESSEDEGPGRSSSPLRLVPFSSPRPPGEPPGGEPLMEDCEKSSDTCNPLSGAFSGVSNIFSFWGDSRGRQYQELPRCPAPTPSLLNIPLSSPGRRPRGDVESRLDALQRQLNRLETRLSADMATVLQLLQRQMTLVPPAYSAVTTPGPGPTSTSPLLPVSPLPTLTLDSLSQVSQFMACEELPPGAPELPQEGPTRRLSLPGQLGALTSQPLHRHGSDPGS
- Method Description: primary screen, population patch clamp on CHO cells stably expressing hERG; higher = less effect of the substance
The campaign covered roughly 310,000 compounds. About 14,000 (4.5%) showed an effect of 50% or more. The effect is printed as a negative number. Shown is part of a subset that was picked to be rich in strong results.
Observed Property: hERG current change (%, negative = inhibition) at 10uM (%)

[
  {
    "Compound": "C[C@]12CC[C@@H]3c4ccc(O)cc4C(=O)C[C@H]3[C@@H]1CC[C@@H]2O",
    "Readout Number": -52.7
  },
  {
    "Compound": "CSc1ccc(C(=O)NCC(c2ccco2)N(C)C)cc1[N+](=O)[O-] (stereo not shown)",
    "Readout Number": 17.8
  },
  {
    "Compound": "Cc1cc(C)cc(OCC(=O)O/N=C(\\N)c2ccccn2)c1",
    "Readout Number": -6.54
  },
  {
    "Compound": "CCOC(=O)C1CCN(C(=O)Cn2cnc3sc(C)c(S(=O)(=O)N4CCCCC4)c3c2=O)CC1",
    "Readout Number": -35.5
  },
  {
    "Compound": "CSc1nc(N)c(C(=O)Nc2ccc([N+](=O)[O-])cc2)s1",
    "Readout Number": -12.3
  },
  {
    "Compound": "COc1ccc(C(=O)NCC(=O)N2CCN(C(=O)c3ccco3)CC2)cc1",
    "Readout Number": -13.7
  },
  {
    "Compound": "COc1ccc(-c2nc(CN3CCN(c4ncnc5ccccc45)CC3)c(C)o2)c(OC)c1",
    "Readout Number": -66.8
  },
  {
    "Compound": "O=C(COC(=O)Cc1ccsc1)NCc1ccc(Cl)cc1",
    "Readout Number": 10.6
  },
  {
    "Compound": "O=C(NCC1COCCO1)C1CCN(S(=O)(=O)c2ccccc2)CC1 (stereo not shown)",
    "Readout Number": -7.05
  },
  {
    "Compound": "O=C(NCCc1cccc(F)c1)/C(=C/c1cccnc1)NC(=O)c1ccccc1",
    "Readout Number": -36.4
  },
  {
    "Compound": "COc1ccccc1C(=O)Nc1c2c(nn1-c1ccc(Cl)cc1)CS(=O)(=O)C2",
    "Readout Number": 9.63
  },
  {
    "Compound": "Cc1ccc(C)n1-c1nnc(N2CCC(C(=O)NCCCN3CC(C)CC(C)C3)CC2)s1 (stereo not shown)",
    "Readout Number": -17.7
  },
  {
    "Compound": "COc1cc(NC2=Nc3cccc4cccc2c34)cc(OC)c1OC",
    "Readout Number": 1.72
  },
  {
    "Compound": "Cn1c(=O)c2c(nc(-n3ccnc3)n2Cc2ccc([N+](=O)[O-])cc2)n(C)c1=O",
    "Readout Number": -43.7
  },
  {
    "Compound": "CC1CCCCN1CCCNC(=O)C1CCN(c2nnc(-n3cccc3)s2)CC1 (stereo not shown)",
    "Readout Number": -27.1
  },
  {
    "Compound": "O=C(NCCc1ccccc1F)/C(=C/c1cccnc1)NC(=O)c1ccccc1",
    "Readout Number": -52.2
  },
  {
    "Compound": "O=C(NCc1ccccc1Cl)c1ccc2ccccc2n1",
    "Readout Number": -1.85
  },
  {
    "Compound": "CCCCOc1ccc(C(=O)NCC(=O)N2CCN(C(=O)c3ccco3)CC2)cc1",
    "Readout Number": -57.4
  },
  {
    "Compound": "COc1ccc(-c2nc(CN3CCN(c4ncccn4)CC3)c(C)o2)cc1C",
    "Readout Number": -21.1
  },
  {
    "Compound": "Oc1c(Br)cc(Cl)cc1C=Nc1ccc(N2CCOCC2)cc1",
    "Readout Number": 19.6
  },
  {
    "Compound": "CN(C)c1ccc(/C=N/NC(=O)c2ccc3c(c2)OCCO3)cc1",
    "Readout Number": 9.93
  },
  {
    "Compound": "O=c1[nH]c(/C=C/c2ccccc2)c([N+](=O)[O-])c(=O)[nH]1",
    "Readout Number": 5.45
  }
]

Entry source: paper PMC4336329
